- EXPERIMENTAL TARGET: Dihydroorotate dehydrogenase (quinone), mitochondrial (Plasmodium falciparum (isolate 3D7))
- METHOD DESCRIPTION: inhibition of P. falciparum DHODH – biochemical, C-terminal His tag, absorbance 600 nm, primary screen (AID 1175);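 also: recombinant parasite enzyme with a five histidine tag at its C terminus; test concentration not given here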
- MEASUREMENT CONDITIONS: PfDHODH enzyme, DCIP absorbance 600 nm, called active from +8 up or from −8 down
The source made the active and inactive calls.
Returns: one label drawn from active, inactive

Cc1ccc(S[C@]2(C(=O)NCC(C)C)CC(=O)N(Cc3cc(C(F)(F)F)cc(C(F)(F)F)c3)[C@@H]2c2ccc(CO)cc2)cc1
inactive
COc1cc(OC)c(C(O)C2C=CC3C(=O)NC(=O)C3N2Nc2ccccn2)cc1Br (centres undefined)
inactive
COCCOC(=O)N1C(=O)[C@@]2(c3cc(C#CCCO)ccc31)[C@H](c1ccc(OCCO)cc1)N1[C@H](c3ccccc3)[C@H](c3ccccc3)OC(=O)[C@H]1[C@@H]2C(N)=O
inactive

Query: Field: outcome | Entry: `C=CC[C@]1(C(N)=O)COC(c2ccc(OCCCO)cc2)=N1`
Reply: inactive

Query: Field: outcome | Entry: `CC(C)(C)OC(=O)CC[C@]1(C(=O)NCCN2CCOCC2)COC(c2ccc(OCCCO)cc2)=N1`
Reply: inactive

Query: Field: outcome | Entry: CC(C)N1CC=CC23O[C@@H]4C=CCOC(=O)[C@@H]4[C@H]2C(=O)N(CCCCCO)[C@@H]3C1=O (some centres undefined)
Reply: inactive

Query: Field: outcome | Entry: `CC(C)CN1C(=O)[C@@]2(c3ccc([N+](=O)[O-])cc3)CC(=O)N(C3CCCCC3)[C@@H]2c2ccc(CO)cc21`
Reply: active

Query: Field: outcome | Entry: `CN(C)CCCCCCNC(=O)[C@@H]1C[C@@H]2C(=O)N3CCC[C@H]3C(=O)N2[C@@H]1c1ccc(O)cc1`
Reply: inactive

Query: Field: outcome | Entry: `CC(C)[C@@H](C(=O)O)n1cc(C2(O)CCCCC2)nn1`
Reply: inactive
